All figures here come from patent US12479866B2.

Target: ROCK1 (Homo sapiens (Human), UniProt Q13464)
Sequence (Q13464 whole entry, species assumed): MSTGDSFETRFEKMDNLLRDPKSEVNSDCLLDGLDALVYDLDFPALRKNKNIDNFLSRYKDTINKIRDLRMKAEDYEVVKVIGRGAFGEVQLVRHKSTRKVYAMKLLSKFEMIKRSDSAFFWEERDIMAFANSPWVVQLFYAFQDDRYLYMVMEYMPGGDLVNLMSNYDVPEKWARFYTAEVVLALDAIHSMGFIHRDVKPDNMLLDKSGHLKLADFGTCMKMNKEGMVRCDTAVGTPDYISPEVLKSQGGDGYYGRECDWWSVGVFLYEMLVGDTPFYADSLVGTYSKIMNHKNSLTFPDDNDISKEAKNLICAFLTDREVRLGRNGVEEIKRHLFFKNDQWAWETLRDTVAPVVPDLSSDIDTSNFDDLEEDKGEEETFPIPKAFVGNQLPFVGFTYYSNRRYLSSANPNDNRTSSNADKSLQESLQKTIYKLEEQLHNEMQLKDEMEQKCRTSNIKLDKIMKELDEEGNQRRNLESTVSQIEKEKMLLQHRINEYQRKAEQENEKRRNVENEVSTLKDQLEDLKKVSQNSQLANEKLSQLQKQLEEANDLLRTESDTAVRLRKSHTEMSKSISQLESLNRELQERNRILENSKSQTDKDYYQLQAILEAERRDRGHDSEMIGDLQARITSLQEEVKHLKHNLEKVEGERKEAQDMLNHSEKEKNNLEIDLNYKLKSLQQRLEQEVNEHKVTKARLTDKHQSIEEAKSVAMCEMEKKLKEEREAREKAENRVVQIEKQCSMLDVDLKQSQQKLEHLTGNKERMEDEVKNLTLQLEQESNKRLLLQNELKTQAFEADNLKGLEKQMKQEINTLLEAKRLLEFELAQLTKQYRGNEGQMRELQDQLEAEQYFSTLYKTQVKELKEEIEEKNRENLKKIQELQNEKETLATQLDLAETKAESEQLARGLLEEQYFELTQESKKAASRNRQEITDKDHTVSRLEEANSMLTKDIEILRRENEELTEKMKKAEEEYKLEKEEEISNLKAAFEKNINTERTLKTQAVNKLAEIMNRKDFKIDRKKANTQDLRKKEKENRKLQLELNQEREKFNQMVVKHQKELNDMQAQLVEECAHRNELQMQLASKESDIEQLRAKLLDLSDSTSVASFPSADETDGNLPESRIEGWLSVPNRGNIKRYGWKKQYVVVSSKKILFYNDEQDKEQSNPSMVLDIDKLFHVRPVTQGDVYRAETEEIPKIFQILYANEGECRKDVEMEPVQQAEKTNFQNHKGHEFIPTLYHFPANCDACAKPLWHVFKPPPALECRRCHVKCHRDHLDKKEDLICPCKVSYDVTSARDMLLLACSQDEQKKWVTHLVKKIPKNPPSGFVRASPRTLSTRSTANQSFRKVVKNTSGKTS
Test: Radioisotope filter binding kinase assay
Format: biochemical
Conditions: 10 uM ATP, read-out: IC50 estimates, ROCK1
observable: IC50 (nM)
A number alone suffices; assume nM.

# input Please report the recorded IC50 for NCC(C(=O)Nc1ccc2cnccc2c1)c1ccc(CO)cc1 (racemic) [Netarsudil-M1-racemate•2HCl, Netarsdil-M1-(racemic), reference compound] .
# output 15

* * *

Assay: Stability in buffer, plasma, and blood (LC-MS/MS)
Type: in vitro ADME, human
Parameters: dose or concentration left out as unconfirmed
Conditions: both sexes, pH 7.4; human Plasma, 37° C.
observable: half-life

# input // lookup half-life for Cl.Cl.NCC(C(=O)Nc1ccc2cnccc2c1)c1ccc(B(O)O)cc1 (stereo not shown) [Compound 10•2HCl]
# output > 2 h

* * *

Target: PKA (Homo sapiens (Human), UniProt P17612)
Experiment: Radioisotope filter binding kinase assay
Assay type: biochemical
Conditions: 10 uM ATP, read-out: IC50 estimates, PKA
observable: IC50 (nM)
The figure you give is taken to be in nM; do not add the unit.

# input Form field: reported IC50 of NCC(C(=O)Nc1ccc2cnccc2c1)c1ccc(CO)cc1 (racemic) [Netarsudil-M1-racemate•2HCl, Netarsdil-M1-(racemic), reference compound]
# output 12

* * *

Test: Caco-2 Permeability
Assay type: in vitro ADME
Settings: human, Caco-2, pH 7.4, A to B; read-out: Papp R1
observable: Papp at 120 min, 5 μM (×10⁻⁶ cm/s)
Response body: numeric value in ×10⁻⁶ cm/s, unit text excluded.

# input Give the measured Papp at 120 min, 5 μM of Cl.Cl.NCC(C(=O)Nc1ccc2cnccc2c1)c1ccc(B(O)O)cc1 (stereo not shown) [Compound 10] .
# output 0.209

* * *

Biological target: ROCK2 (Homo sapiens (Human), UniProt O75116)
Sequence (O75116 whole entry): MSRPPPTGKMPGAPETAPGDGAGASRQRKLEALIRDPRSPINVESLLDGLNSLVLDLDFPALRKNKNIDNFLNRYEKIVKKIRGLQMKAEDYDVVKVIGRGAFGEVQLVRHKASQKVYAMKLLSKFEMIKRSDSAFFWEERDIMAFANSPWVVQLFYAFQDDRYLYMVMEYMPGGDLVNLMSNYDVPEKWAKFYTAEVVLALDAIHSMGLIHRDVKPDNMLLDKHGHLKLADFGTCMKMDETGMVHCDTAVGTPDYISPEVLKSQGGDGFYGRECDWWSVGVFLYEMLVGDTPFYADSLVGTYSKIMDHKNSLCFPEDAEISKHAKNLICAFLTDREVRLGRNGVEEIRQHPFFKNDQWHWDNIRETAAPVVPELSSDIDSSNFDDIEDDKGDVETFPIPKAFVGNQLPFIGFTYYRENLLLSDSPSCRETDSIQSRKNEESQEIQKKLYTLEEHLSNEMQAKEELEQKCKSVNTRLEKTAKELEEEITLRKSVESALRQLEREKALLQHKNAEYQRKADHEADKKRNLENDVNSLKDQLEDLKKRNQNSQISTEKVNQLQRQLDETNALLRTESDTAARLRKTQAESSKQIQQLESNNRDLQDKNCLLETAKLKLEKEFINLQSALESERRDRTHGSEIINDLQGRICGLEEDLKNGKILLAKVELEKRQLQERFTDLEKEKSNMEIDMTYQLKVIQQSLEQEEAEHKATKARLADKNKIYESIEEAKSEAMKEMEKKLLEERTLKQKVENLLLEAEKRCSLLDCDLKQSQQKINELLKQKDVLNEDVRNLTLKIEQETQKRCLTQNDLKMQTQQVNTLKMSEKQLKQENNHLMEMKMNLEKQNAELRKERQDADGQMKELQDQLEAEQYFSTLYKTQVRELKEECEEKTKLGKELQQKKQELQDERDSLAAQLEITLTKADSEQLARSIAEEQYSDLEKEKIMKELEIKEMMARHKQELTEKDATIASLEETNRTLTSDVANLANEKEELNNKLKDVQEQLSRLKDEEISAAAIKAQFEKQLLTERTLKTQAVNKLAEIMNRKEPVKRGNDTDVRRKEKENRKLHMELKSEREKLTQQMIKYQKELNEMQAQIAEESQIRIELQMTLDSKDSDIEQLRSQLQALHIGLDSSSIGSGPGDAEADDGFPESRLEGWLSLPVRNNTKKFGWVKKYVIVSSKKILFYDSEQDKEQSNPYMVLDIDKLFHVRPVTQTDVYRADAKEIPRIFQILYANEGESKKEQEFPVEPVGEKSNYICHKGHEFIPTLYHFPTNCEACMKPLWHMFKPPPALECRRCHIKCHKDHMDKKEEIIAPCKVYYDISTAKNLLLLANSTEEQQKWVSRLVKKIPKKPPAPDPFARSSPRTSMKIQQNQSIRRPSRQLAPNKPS
Assay: ROCK2 ADP-Glo kinase enzyme inhibition assay
Format: biochemical
Settings: Exp #2; read-out: ROCK2 IC50(Exp #2)
observable: pIC50
Scale: pIC50 equals -log10([C]), with [C] in mol/L.

# input Entry Cl.Cl.NCC(C(=O)Nc1ccc2cnccc2c1)c1ccc(B(O)O)cc1 (centres unmarked) : reported pIC50 = ?
# output 7.59

# input Then NCC(C(=O)Nc1ccc2cnccc2c1)c1ccc(CO)cc1 (racemic) [Netarsudil-M1-racemate•2HCl, Netarsdil-M1-(racemic), reference compound] ?
# output 7.18

* * *

Assay: Octanol/buffer partition coefficient (log D7.4)
Assay type: physicochemical
Details: n-octanol / pH 7.4 phosphate buffer, read-out: log D at pH 7.4
observable: logD
Respond with the number and no other words.

# input GET /values?readout=logD&item= Cl.Cl.NCC(C(=O)Nc1ccc2cnccc2c1)c1ccc(B(O)O)cc1 (stereo not shown) [Compound 10•2HCl]
# output 0.822

* * *

Experiment: Caco-2 Permeability
Type: in vitro ADME
Conditions: human, Caco-2, pH 7.4
observable: efflux ratio at 120 min, 5 μM
Give only the figure.

# input efflux ratio at 120 min, 5 μM lookup needed for Cl.Cl.NCC(C(=O)Nc1ccc2cnccc2c1)c1ccc(B(O)O)cc1 (stereo not shown) [Compound 10] , thanks.
# output 2.58

* * *

Target: ROCK2 (Homo sapiens (Human))
Assay: ROCK2 ADP-Glo kinase enzyme inhibition assay
Format: biochemical
Details: average of two lots of compound 10 and compound 10.2HCl; read-out: average IC50 estimate against ROCK2
observable: IC50 (nM)
Write the answer as a number in nM, unit excluded.

# input What reported IC50 corresponds to Cl.Cl.NCC(C(=O)Nc1ccc2cnccc2c1)c1ccc(B(O)O)cc1 (stereo not shown) on ROCK2 (Homo sapiens (Human))?
# output 25
